Experiment: Half life in rat at 5 mg/kg, iv
Format: ADME, organism-based
Parameters: dose 5 mg/kg, route intravenous
Conditions: in vivo
OBSERVABLE: half-life (h)

Recorded results for 3 compounds are shown here.
> print(dat)
                                   compound  endpoint.value
1  COc1c(-c2ccc3c(c2)CC/C3=N\NS(C)(=O)=O)cc(-n2ccc(=O)[nH]c2=O)cc1C(C)(C)C             2.8
2  COc1c(C(=O)Nc2ccc(NS(C)(=O)=O)cc2)cc(N2CCC(=O)NC2=O)cc1C(C)(C)C             1.1
3  COc1c(-c2ccc3c(c2)CCC3CNS(C)(=O)=O)cc(-n2ccc(=O)[nH]c2=O)cc1C(C)(C)C (stereo unspecified)             1.8

I = COc1c(-c2ccc3c(CNS(C)(=O)=O)csc3c2)cc(-n2ccc(=O)[nH]c2=O)cc1C(C)(C)C
II = COc1c(-c2ccc3c(c2)CCC3(C)CNS(C)(=O)=O)cc(-n2ccc(=O)[nH]c2=O)cc1C(C)(C)C (stereo unspecified)
Prompt: Which numeric half-life is bigger, that of I or that of II ? State the label of the item chosen.
Response: I
(I: 3.6 h, II: 2.3 h)
